All values here come from PubChem BioAssay (NCI).

Field: growth. Provide a value for each of the compounds that follow.
Test system: TK-10 renal
Assay: NCI-60 one-dose screen, 48 h (100 = growth as untreated, 0 = no growth, -100 = all killed)
Details: 10 µM unless noted
Experimental: Growth inhibition of the TK-10 human tumor cell line is measured as a screen for anti-cancer activity. Cells are grown in 96 well plates and exposed to the test compound for 48 hours. Compounds are tested at a single concentration, which is 10^-5 M for most compounds. The reported endpoint is percent growth (GI% or GIPRCNT), where numbers from 0 - 100% represent growth inhibition, and numbers from -100% - 0 represent cell death. For example, a value of 40 represents 60% growth inhibition. […]
About 83,000 compounds went through this panel and 20% of them were active in at least one assay; those are over-represented in the sample as a whole.
The reply should be a number in %, with the unit left off.

Q: # growth lookup, item "O=S(=O)(c1ccc(NC(=S)NCc2cccnc2)cc1)N1CCCCC1"
Result: 112

Q: Again, but for "CCCCCCCCCCCCCCCCCC(=O)NCCNC(=O)CCCCCCCCCCCCCCCCC"
Result: 106

Q: Again, but for Oc1ccc(CCC2CCNc3ccccc32)cc1 (stereo not given)
Result: 93.2

Q: Again, but for "CC(C)=CCC[C@@H](C)[C@H]1CC[C@@]2(C)C3=C(CC[C@]12C)[C@@]1(C)CC[C@H](O)C(C)(C)[C@@H]1CC3"
Result: 112

Q: Again, but for "CC(C)Sc1ncnc2nc[nH]c12"
Result: 116
